Target: ΔCTD_Reg1 (amino acids 1 to 546 of human Regnase-1) phosphorylation by IKKβ (Homo sapiens)
Construct: made in house; host or cells: Expi293 cells
Sequence (Q5D1E8 1-546, stated change not applied): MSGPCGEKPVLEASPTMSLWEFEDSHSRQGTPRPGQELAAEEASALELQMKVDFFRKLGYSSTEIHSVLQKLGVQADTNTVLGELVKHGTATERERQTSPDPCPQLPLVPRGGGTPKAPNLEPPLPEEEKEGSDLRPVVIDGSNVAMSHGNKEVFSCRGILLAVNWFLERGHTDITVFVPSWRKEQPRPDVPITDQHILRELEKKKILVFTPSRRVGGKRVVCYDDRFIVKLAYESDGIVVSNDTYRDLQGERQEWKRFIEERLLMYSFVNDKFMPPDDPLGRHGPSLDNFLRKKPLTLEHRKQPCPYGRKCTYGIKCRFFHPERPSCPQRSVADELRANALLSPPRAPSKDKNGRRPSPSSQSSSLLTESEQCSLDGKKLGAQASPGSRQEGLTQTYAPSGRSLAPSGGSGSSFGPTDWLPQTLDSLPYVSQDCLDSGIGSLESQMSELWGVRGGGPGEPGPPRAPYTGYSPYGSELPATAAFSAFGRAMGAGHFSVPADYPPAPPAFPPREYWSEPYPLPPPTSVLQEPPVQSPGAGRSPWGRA
Assay: Regnase-1 phosphorylation inhibition by compounds (AlphaScreen), IKKβ, CTD-deficient Regnase-1
Type: biochemical
Conditions: Table 14; phosphorylation by IKKβ; read-out: Phosphorylation inhibition ΔCTD_Reg1, 50% inhibition concentration (IKKβ)
Residues, ends and D or L forms follow the SMILES beside them.
readoutName: pIC50
// scale note: pIC50 = -log10(conc_M); give the bare number

Record C[C@@H]1C(=O)N[C@@H](CCC(=O)O)C(=O)N[C@@H](CC(=O)O)C(=O)N[C@@H]([C@@H](C)O)C(=O)N2CCC[C@H]2C(=O)N[C@@H](CCC(=O)O)C(=O)N[C@@H](CC(=O)O)C(=O)N[C@@H](CC(=O)O)C(=O)N[C@@H](Cc2c[nH]cn2)C(=O)N[C@H](C(=O)N2CCCC2)CC(=O)N1C [PP25] (HELM PEPTIDE1{[C[C@H](C(=O)[*:2])N(C)[*:1]].E.D.T.P.E.D.D.H.D.[C1CCN([*:1])C1]}$PEPTIDE1,PEPTIDE1,1:R1-10:R3$$$V2.0) , field pIC50: 4.32

Record CC[C@H](C)[C@@H]1NC(=O)[C@H](Cc2c[nH]c3ccccc23)NC(=O)[C@H](CCC(N)=O)NC(=O)[C@H](Cc2ccc(O)cc2)NC(=O)[C@H](C(C)C)NC(=O)[C@H](C)NC(=O)[C@H](Cc2ccc(O)cc2)NC(=O)[C@H](CCCNC(=N)N)NC(=O)[C@H](C)N(C)C(=O)C[C@@H](C(=O)N2CCCC2)NC(=O)[C@@H]2CCCN2C(=O)[C@H](Cc2ccc(O)cc2)NC1=O [PP12] (HELM PEPTIDE1{[meA].R.Y.A.V.Y.Q.W.I.Y.P.D.[C1CCN([*:1])C1]}$PEPTIDE1,PEPTIDE1,1:R1-12:R3$$$V2.0) , field pIC50: 4.57
